Listed here: items and their measured T/C.
Tested on: BDF1 mice, P388 leukemia ip, median survival T/C
ASSAY_REMARKS: NCI In Vivo Anticancer Drug Screen. Data for tumor model P388 Leukemia (intraperitoneal) in B6D2F1 (BDF1) mice
TEST_CONTEXT: endpoint: median survival time; dose: 400.0 mg/kg/injection; schedule: Q01DX001 (ip); vehicle: saline with Tween-80; higher = longer survival
Toxic doses and inconclusive results are not listed.

Answered examples (9):
{"columns": ["COMPOUND", "T/C"],
 "data": [
  ["Cc1oc(-c2ccccc2)nc1C(=O)Cl", "103 % of control"],
  ["CN1C(=O)C(C2(C3C(=O)N(C)C(=O)N(C)C3=O)C(=O)N(C)C(=O)N(C)C2=O)C(=O)N(C)C1=O", "102 % of control"],
  ["CCc1n[nH]c(=O)c2c3ccccc3nn12", "100 % of control"],
  ["CCN(C(=O)Nc1ccccc1)c1ccccc1", "95 % of control"],
  ["CCN(C(=O)Nc1ccccc1Cl)c1ccccc1", "100 % of control"],
  ["C=CCOc1ccc([N+](=O)[O-])cc1[N+](=O)[O-]", "100 % of control"],
  ["O=C(OC1(c2ccccc2)CCC1)c1cc([N+](=O)[O-])cc([N+](=O)[O-])c1", "99 % of control"],
  ["COC(=O)C1=C(C)NC(=O)NC1c1ccccc1 (stereo not given)", "100 % of control"],
  ["O=C(O)C1C2C=CC(C2)C1C(F)(F)C(F)(F)C(F)(F)F (stereo not given)", "118 % of control"]
]}

Given the entry Nc1nc(N)c(N=Cc2ccccc2)c(=O)[nH]1 , what T/C was observed with BDF1 mice, P388 leukemia ip, median survival T/C?
97 % of control

---

Tested on: BDF1 mice, P388 leukemia ip, median survival T/C
ASSAY_REMARKS: NCI In Vivo Anticancer Drug Screen. Data for tumor model P388 Leukemia (intraperitoneal) in B6D2F1 (BDF1) mice
TEST_CONTEXT: endpoint: median survival time; dose: 6.25 mg/kg/injection; schedule: Q01DX009 (ip); vehicle: water
Toxic doses and inconclusive results are not listed. The calls were made as follows: active = survival T/C of 150% or more; inactive = T/C below 125% in these data.
Give one outcome, nothing more. List: 1 (yes) = active, 0 (no) = inactive

Field: example entries. Status: answers known.
{"columns": ["MOLECULE", "LABEL"],
 "data": [
  ["O=CN1CCCC1C(=O)O (stereo not drawn)", "0 (no)"],
  ["O=C1c2ccccc2C(=O)N1CC[P+](c1ccccc1)(c1ccccc1)c1ccccc1", "1 (yes)"],
  ["CC(=N\\O)/C(C)=N/O.CC(=N\\O)/C(C)=N/O.CC1CC[N-]CC1.CC1CC[N-]CC1.CC1CC[N-]CC1.CC1CC[N-]CC1.[Cl][Rh][Cl].[Pt+2]", "0 (no)"],
  ["O=C1C(c2ccccc2)=C(c2ccccc2)C(c2ccccc2)=C1c1ccccc1", "0 (no)"],
  ["O=C1NC(c2cccs2)(c2cccs2)C(=O)N1Cl", "0 (no)"]
]}

Recorded test outcome, item CS(=O)(=O)OCc1c(O)c2c(c(O)c1COS(C)(=O)=O)C(=O)C=CC2=O
0 (no)

Recorded test outcome, item COc1cccc2c1C(=O)c1c(O)c3c(c(O)c1C2=O)C[C@@](O)(/C(C)=N\O)C[C@@H]3OC1CC(N)C(O)C(C)O1 (stereo partly drawn)
1 (yes)

Recorded test outcome, item CCCCCCCCCCCC(=O)NC1CC(O[C@H]2C[C@](O)(C(=O)CO)Cc3c(O)c4c(c(O)c32)C(=O)c2c(OC)cccc2C4=O)OC(C)C1O (stereo partly drawn)
1 (yes)

---

Tested on: BDF1 mice, P388 leukemia ip, median survival T/C
ASSAY_REMARKS: NCI In Vivo Anticancer Drug Screen. Data for tumor model P388 Leukemia (intraperitoneal) in B6D2F1 (BDF1) mice
TEST_CONTEXT: endpoint: median survival time; dose: 100.0 mg/kg/injection; schedule: Q01DX009 (ip); vehicle: other; higher = longer survival
Inconclusive results and toxic doses are left out.
VALUE_TYPE: T/C

{"columns": ["MOLECULE", "T/C"],
 "data": [
  ["CSC(c1ccccc1)=[N+]1CCOCC1", "118 % of control"],
  ["CCCCCCCCCCCC(=O)CCCC", "110 % of control"],
  ["O=[N+]([O-])c1ccc(C(F)(F)F)cc1", "113 % of control"],
  ["O=C(O)CCCCCCc1ccc2ccccc2n1", "117 % of control"]
]}

Given the entry CCOC(=O)CC(COC)C(C(=O)OCC)C(=O)OCC (stereo unspecified) , what T/C was observed with BDF1 mice, P388 leukemia ip, median survival T/C?
92 % of control

Given the entry CC(=N\O)/C(=N\O)C(=O)c1ccccc1 , what T/C was observed with BDF1 mice, P388 leukemia ip, median survival T/C?
91 % of control

---

Tested on: BDF1 mice, P388 leukemia ip, median survival T/C
ASSAY_REMARKS: NCI In Vivo Anticancer Drug Screen. Data for tumor model P388 Leukemia (intraperitoneal) in B6D2F1 (BDF1) mice
TEST_CONTEXT: endpoint: median survival time; dose: 50.0 mg/kg/injection; schedule: Q01DX009 (ip); vehicle: saline
Toxic doses and inconclusive results are not listed. How the source made its calls: active means survival T/C of 150% or more; inactive means T/C below 125% in these data.
Give one outcome, nothing more. List: active, inactive

Field: example entries. Status: answers known.
{"columns": ["COMPOUND", "LABEL"],
 "data": [
  ["Nc1[nH]c(=O)nc2nc[nH]c12", "inactive"],
  ["CCCCNC(C)(C)CO", "inactive"],
  ["COc1ncnc2c1c(C#N)cn2C1OC(CO)C(O)C1O (stereo not drawn)", "inactive"],
  ["OC1CCC(O)C1(Cl)Cl (stereo not drawn)", "inactive"],
  ["CCN(CC)C(=O)COc1cc2c(O)c3c(O)c(C)c4c(c13)C(=O)C(C)(OC=CC(OC)C(C)C(OC(C)=O)C(C)C(O)C(C)C(O)C(C)C=CC=C(C)C(=O)N2)O4 (stereo not drawn)", "inactive"]
]}

Recorded test outcome, item COC(=O)C(C)CN1CCCCC1 (stereo not drawn)
inactive

Recorded test outcome, item CC(C)=C=CCN(C)Cc1ccccc1
inactive

Recorded test outcome, item CCN(CC)CCNc1ccc(C)c2sc3ccccc3c(=O)c12 (tested in a mixture with another compound)
active

Recorded test outcome, item S=c1cc(-c2ccc(Cl)cc2)ss1
inactive

Recorded test outcome, item CNC/C(C)=C/Br
inactive

Recorded test outcome, item CN(C)CCC12CC(=O)CCC1C=Cc1ccc(O)c(O)c12 (stereo not drawn)
inactive

Recorded test outcome, item COc1cccc(NN)c1
inactive

Recorded test outcome, item CN(Cc1cnc2nc(N)nc(N)c2n1)c1c(Cl)cc(C(=O)NC(CCC(=O)O)C(=O)O)cc1Br (stereo not drawn)
active

Recorded test outcome, item Nc1ccc(CCCCc2ccccc2)cc1
inactive

Recorded test outcome, item NC1C=CC(CCC(N)C(=O)O)C=C1 (stereo not drawn)
inactive

Recorded test outcome, item OCCNCCNCC[OH2+].OCCNCCNCC[OH2+].[Ni+2].[O-][Cl+3]([O-])([O-])[O-]
inactive

Recorded test outcome, item CCCCCCCCCCCCCC[N+]1([O-])CCCC1
inactive

Recorded test outcome, item FC(F)(F)c1nc2nccnc2[nH]1
inactive

Recorded test outcome, item NC(N)=NC(N)=Nc1cnccn1
inactive

Recorded test outcome, item NNC(=O)c1ccncc1
inactive

Recorded test outcome, item CCCCCCOP(=O)(N1CC1C)N1CC1C (stereo not drawn)
inactive

Recorded test outcome, item OCC12COCN1COC2
inactive

Recorded test outcome, item C=CC1CCCCC1C=C (stereo not drawn)
inactive

Recorded test outcome, item CC(N)c1ccccc1 (stereo not drawn) (tested in a mixture with another compound)
inactive

Recorded test outcome, item CN1C(=O)N(C)C2(C=Cc3cc([N+](=O)[O-])ccc3O2)N(C)C1=O
inactive

---

Tested on: BDF1 mice, P388 leukemia ip, median survival T/C
ASSAY_REMARKS: NCI In Vivo Anticancer Drug Screen. Data for tumor model P388 Leukemia (intraperitoneal) in B6D2F1 (BDF1) mice
TEST_CONTEXT: endpoint: median survival time; dose: 200.0 mg/kg/injection; schedule: Q01DX009 (ip); vehicle: Klucel (hydroxypropylcellulose) (HPC)
Toxic doses and inconclusive results are not listed. The calls were made as follows: active = survival T/C of 150% or more; inactive = T/C below 125% in these data.
Give one outcome, nothing more. List: t (active), f (inactive)

Recorded test outcome, item CC(=O)O[C@]1(C(C)=O)CC[C@H]2[C@@H]3C=C(Cl)C4=CC(=O)[C@@H]5C[C@@H]5[C@]4(C)[C@H]3CC[C@@]21C
f

Recorded test outcome, item CC(=O)Nc1ccc(NC(=O)c2ccc([As](O)O)cc2)cc1
t

Recorded test outcome, item CCC(=O)OC1CC2(C)C(=CC1=O)CCC1C2CCC2(C)C(OC(=O)CC)CCC12 (stereo not given)
f

Recorded test outcome, item O=C(OC(=O)c1cccc(-c2ccccc2)c1)c1cccc(-c2ccccc2)c1
f

Recorded test outcome, item CC(=O)OCCCc1ccccc1
f

Recorded test outcome, item S
f

Recorded test outcome, item CC(C)(C)/C=N/Nc1ccc([N+](=O)[O-])cc1[N+](=O)[O-]
f

Recorded test outcome, item Cc1ccc2c(c1)=N/C(=N\c1nc(O)c(O)[nH]1)N=2
f

Recorded test outcome, item CC12C(=O)C(C)(C(c3ccccc3)=C1c1ccccc1)C1(c3ccccc3)C(c3ccccc3)C21c1ccccc1 (stereo not given)
f

Recorded test outcome, item Cc1noc(C)c1CC1(Cc2c(C)noc2C)C(=O)CCC2(C)CCCC=C21 (stereo not given)
f
